- system tested: phosphodiesterase enzyme type 5 (PDE5) (Homo sapiens, UniProt O76074)
IC50 less than 40 nM is class 1; IC50 greater than or equal to 40 nM is class 0.

O=c1[nH]c2cccnc2nc1CNc1ccc(Br)cc1; class 0
O=C(Cc1nc2ncccc2[nH]c1=O)N/N=C/c1ccc([N+](=O)[O-])cc1; class 0
O=c1[nH]c2cccnc2nc1CN/N=C/c1ccc([N+](=O)[O-])cc1; class 0
CC(=O)N1N=C(Cc2nc3ncccc3[nH]c2=O)OC1c1ccccc1 (stereo not shown) [Compound 11a]; class 1
COc1ccc(/C=N/NC(=O)Cc2nc3ncccc3[nH]c2=O)cc1; class 0
COc1ccc(C2OC(Cc3nc4ncccc4[nH]c3=O)=NN2C(C)=O)cc1 (stereo not shown) [Compound 11c]; class 1

Here's an entry: CC(=O)N1N=C(Cc2nc3ncccc3[nH]c2=O)OC1c1ccc([N+](=O)[O-])cc1 (stereo not shown) [Compound 11b] . Is its IC50 below 40 nM? class 1

This collection of values is drawn from paper PMC9501832.
